test: chemical genetic growth profiling, strain panel (AID 1159580);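 further: tested at 20 µM; growth read once vehicle control cultures reached saturation at 30 °C; 1 = growth at the plate median or of vehicle wells; lower values mean less growth of the strain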; conditions: S. cerevisiae deletion strains, growth OD, locus YJR066W, strain TOR1 (second series), active compounds read low
Out of some 5,500 compounds screened, about 2,000 (36%) were called active. Roughly 18% stayed inconclusive and do not appear here. The list shows a part of the results.
measurementKind: normalized growth
Response field accepts a number only; no unit should be typed.

O=C(Nc1ccc(Cl)cc1Cl)c1cnccc1C(F)(F)F ... 1
Nc1cc(-c2ccc(OC(F)(F)F)cc2)nn1-c1ccc(Cl)c(Cl)c1 ... 0.589
COc1cc(N=Cc2cc(Cl)cc(Cl)c2OC(=O)c2cc(OC)c(OC)c(OC)c2)c(OC)cc1Cl ... 0.463
Cc1cc(C(=O)O/N=C(/N)c2ccc([N+](=O)[O-])o2)no1 ... 0.822
CC1(C)C/C(=N/Nc2ccc(C(F)(F)F)cc2)c2cc(C(C)(C)C)c(O)c(O)c2O1 ... 0.355
O=C(NCc1ccco1)c1csc(C2COc3ccccc3O2)n1 (configuration not stated) ... 0.343
COc1cc(C(=O)Oc2c(Cl)cc(Cl)cc2C=Nc2cccc(C(F)(F)F)c2)cc(OC)c1OC ... 0.775
CC12CC[C@@H](O)CC1=CC[C@@H]1C2CCC2(C)C(=O)CC[C@@H]12 (some centres not stated) ... 0.848

Below: the item to evaluate.
Per the record, `CCOC(=O)NC(=S)NC12CC3CC(CC(C3)C1)C2` has normalized growth of 0.789
